STUDY_SYSTEM: VLA-4 (α4β1 integrin) (Homo sapiens, UniProt P05556+P13612)
Construct: Ramos cells bearing cell-surface VLA-4; endogenous in cells; host or cells: Ramos cells
Sequence (P05556 21-798, one chain of several): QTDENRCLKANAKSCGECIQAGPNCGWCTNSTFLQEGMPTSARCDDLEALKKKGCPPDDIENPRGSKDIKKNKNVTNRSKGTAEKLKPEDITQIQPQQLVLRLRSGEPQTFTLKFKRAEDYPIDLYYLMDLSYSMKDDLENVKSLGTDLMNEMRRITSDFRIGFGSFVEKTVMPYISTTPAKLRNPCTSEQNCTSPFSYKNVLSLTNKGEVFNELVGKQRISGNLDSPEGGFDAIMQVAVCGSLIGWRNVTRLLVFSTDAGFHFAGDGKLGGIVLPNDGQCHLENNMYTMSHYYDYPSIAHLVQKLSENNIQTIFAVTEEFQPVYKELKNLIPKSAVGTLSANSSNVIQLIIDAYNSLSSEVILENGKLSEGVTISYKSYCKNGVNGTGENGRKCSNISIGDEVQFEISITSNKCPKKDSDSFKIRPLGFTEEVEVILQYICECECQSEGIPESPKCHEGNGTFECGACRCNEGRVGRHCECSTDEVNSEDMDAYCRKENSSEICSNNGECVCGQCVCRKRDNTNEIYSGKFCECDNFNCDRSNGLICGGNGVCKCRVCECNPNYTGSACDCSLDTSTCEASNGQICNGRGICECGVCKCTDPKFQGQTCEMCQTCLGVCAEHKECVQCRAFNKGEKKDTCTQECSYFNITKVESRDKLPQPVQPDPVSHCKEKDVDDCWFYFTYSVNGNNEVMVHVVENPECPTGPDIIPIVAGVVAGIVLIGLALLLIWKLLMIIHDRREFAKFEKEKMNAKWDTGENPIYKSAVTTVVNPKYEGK
METHOD: Ramos (VLA-4)/VCAM-1 Cell-Based Screening Assay (cell adhesion)
TEST_CONDITIONS: Calcein-AM labeled Ramos cells adhering to immobilized recombinant human VCAM-1
READOUT: IC50

1) Cc1c(-c2ccc(C[C@H](NC(=O)c3c(Cl)cccc3Cl)C(=O)OCCN3CCOCC3)cc2)c(=O)n(C)c(=O)n1C [Example 31]: < 10000 nM
2) COCCC1(C(=O)N[C@@H](Cc2ccc(-c3cn(C)c(=O)n(C)c3=O)cc2)C(=O)O)CCCC1 [Example 3]: < 100 nM
3) Cc1c(-c2ccc(C[C@H](NC(=O)c3c(F)cccc3C(F)(F)F)C(=O)O)cc2)c(=O)n(C)c(=O)n1C [Example 13]: < 100 nM
4) CC(=O)OC(C)OC(=O)[C@H](Cc1ccc(-c2c(C)n(C)c(=O)n(C)c2=O)cc1)NC(=O)c1c(Cl)cccc1Cl (stereo partly shown) [Example 33]: < 10000 nM
5) CCOC(=O)[C@H](Cc1ccc(-c2c(C)n(C)c(=O)n(C)c2=O)cc1)NC(=O)c1c(Cl)cccc1Cl [Example 27]: < 10000 nM
6) Cc1cccc(Cl)c1C(=O)N[C@@H](Cc1ccc(-c2c(C)n(C)c(=O)n(C)c2=O)cc1)C(=O)O [Example 9]: < 100 nM
7) COc1ccc(Br)c(C(=O)N[C@@H](Cc2ccc(-c3cn(C)c(=O)n(C)c3=O)cc2)C(=O)O)c1 [Example 5]: < 10000 nM
8) Cc1cccc(Cl)c1C(=O)N[C@@H](Cc1ccc(-c2cn(C)c(=O)n(C)c2=O)cc1)C(=O)O [Example 2]: < 100 nM
9) CCn1c(C)c(-c2ccc(C[C@H](NC(=O)C3(CCOC)CCCC3)C(=O)O)cc2)c(=O)n(CC)c1=O [Example 20]: < 100 nM
10) Cc1cccc(Br)c1C(=O)N[C@@H](Cc1ccc(-c2cn(C)c(=O)n(C)c2=O)cc1)C(=O)O [Example 4]: < 100 nM
11) Cc1cccc(C(C)C)c1C(=O)N[C@@H](Cc1ccc(-c2c(C)n(C)c(=O)n(C)c2=O)cc1)C(=O)O [Example 11]: < 100 nM
12) Cc1c(-c2ccc(C[C@H](NC(=O)c3c(Cl)cccc3Cl)C(=O)O)cc2)c(=O)n(C)c(=O)n1C [Example 6]: < 100 nM
13) Cc1cccc(Cl)c1C(=O)N[C@@H](Cc1ccc(-c2c(C(F)(F)F)n(C)c(=O)n(C)c2=O)cc1)C(=O)O [Example 22]: < 100 nM
14) Cc1cccc(Br)c1C(=O)N[C@@H](Cc1ccc(-c2c(C)n(C)c(=O)n(C)c2=O)cc1)C(=O)O [Example 8]: < 100 nM
15) CCc1cccc(C)c1C(=O)N[C@@H](Cc1ccc(-c2c(C)n(C)c(=O)n(C)c2=O)cc1)C(=O)O [Example 10]: < 100 nM
16) Cc1cc(C[C@H](NC(=O)c2c(C)cccc2Cl)C(=O)O)ccc1-c1cn(C)c(=O)n(C)c1=O [Example 24]: < 10000 nM
17) CCc1cccc(Cl)c1C(=O)N[C@@H](Cc1ccc(-c2c(C)n(C)c(=O)n(C)c2=O)cc1)C(=O)O [Example 15]: < 100 nM
18) CC(=O)OC(C)OC(=O)[C@H](Cc1ccc(-c2c(C)n(C)c(=O)n(C)c2=O)cc1)NC(=O)c1c(C)cccc1Cl (stereo partly shown) [Example 34]: < 10000 nM
19) CCN(CC)CCOC(=O)[C@H](Cc1ccc(-c2c(C)n(C)c(=O)n(C)c2=O)cc1)NC(=O)c1c(C)cccc1Cl [Example 29]: < 100 nM

====

The following molecules are listed with their measured IC50 values.
STUDY_SYSTEM: alpha4-beta7 (Homo sapiens, UniProt P13612+P26010)
Construct: Sufficient RPMI 8866 cells were removed from stock for assay; endogenous in cells
Sequence (P13612 34-1032): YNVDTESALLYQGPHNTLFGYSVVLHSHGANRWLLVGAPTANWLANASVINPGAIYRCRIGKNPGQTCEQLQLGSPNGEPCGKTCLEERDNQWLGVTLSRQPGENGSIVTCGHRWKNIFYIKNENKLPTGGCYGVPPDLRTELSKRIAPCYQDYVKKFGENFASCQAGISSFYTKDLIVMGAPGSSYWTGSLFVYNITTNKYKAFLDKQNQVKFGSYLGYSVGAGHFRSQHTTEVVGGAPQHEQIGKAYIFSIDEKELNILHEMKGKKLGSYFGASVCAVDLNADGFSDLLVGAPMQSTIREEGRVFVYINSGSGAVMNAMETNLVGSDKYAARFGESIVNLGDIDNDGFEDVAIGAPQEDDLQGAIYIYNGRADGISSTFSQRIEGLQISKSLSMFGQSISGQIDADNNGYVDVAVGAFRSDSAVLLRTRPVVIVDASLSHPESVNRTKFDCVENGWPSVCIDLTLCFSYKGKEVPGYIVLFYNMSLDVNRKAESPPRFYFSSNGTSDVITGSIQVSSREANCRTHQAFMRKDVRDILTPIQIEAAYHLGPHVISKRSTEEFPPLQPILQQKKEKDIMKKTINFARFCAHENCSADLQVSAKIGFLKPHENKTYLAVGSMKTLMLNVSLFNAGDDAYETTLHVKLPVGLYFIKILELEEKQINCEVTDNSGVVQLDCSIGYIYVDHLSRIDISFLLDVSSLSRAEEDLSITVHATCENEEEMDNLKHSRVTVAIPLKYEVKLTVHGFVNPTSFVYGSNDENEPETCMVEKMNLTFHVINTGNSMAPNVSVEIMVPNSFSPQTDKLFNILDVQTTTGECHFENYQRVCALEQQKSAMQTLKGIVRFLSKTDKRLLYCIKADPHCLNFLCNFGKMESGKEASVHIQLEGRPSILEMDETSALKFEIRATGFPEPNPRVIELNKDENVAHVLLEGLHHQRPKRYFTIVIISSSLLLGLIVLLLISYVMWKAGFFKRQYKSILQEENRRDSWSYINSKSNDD
Sequence (P26010 20-798): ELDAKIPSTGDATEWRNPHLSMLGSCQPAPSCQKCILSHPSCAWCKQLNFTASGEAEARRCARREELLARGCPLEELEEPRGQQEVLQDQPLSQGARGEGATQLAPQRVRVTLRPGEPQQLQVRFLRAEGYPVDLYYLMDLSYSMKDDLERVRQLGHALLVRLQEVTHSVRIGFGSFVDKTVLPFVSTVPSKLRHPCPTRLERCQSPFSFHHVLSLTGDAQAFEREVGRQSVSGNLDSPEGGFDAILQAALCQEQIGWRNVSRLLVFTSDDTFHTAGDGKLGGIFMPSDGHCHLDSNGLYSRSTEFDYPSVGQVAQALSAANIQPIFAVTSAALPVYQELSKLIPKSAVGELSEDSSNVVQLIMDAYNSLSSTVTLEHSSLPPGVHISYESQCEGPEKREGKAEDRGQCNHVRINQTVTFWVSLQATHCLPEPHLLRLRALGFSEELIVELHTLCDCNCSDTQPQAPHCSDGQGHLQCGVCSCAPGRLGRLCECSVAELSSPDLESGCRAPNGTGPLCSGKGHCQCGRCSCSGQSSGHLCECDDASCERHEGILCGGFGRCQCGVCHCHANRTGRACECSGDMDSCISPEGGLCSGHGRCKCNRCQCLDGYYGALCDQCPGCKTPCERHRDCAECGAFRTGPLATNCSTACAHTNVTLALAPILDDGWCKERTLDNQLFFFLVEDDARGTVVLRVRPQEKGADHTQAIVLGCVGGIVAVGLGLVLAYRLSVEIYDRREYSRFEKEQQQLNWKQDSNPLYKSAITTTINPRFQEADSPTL
METHOD: Alpha4-Beta7 Assay (MadCAM/RPMI 8866 cell adhesion)
TEST_CONDITIONS: calcein labeled RPMI 8866 cells adhering to immobilized MadCAM
READOUT: IC50

1. CCc1cccc(Cl)c1C(=O)N[C@@H](Cc1ccc(-c2c(C)n(C)c(=O)n(C)c2=O)cc1)C(=O)O [Example 15]: < 10 µM
2. Cc1cc(C[C@H](NC(=O)c2c(Cl)cccc2Cl)C(=O)O)ccc1-c1cn(C)c(=O)n(C)c1=O [Example 25]: < 10 µM
3. COCCC1(C(=O)N[C@@H](Cc2ccc(-c3c(C)n(C)c(=O)n(C)c3=O)cc2)C(=O)O)CCCC1 [Example 7]: < 0.1 µM

====

The following molecules are listed with their measured melting point values.
READOUT: melting point

1) Cc1cccc(Cl)c1C(=O)N[C@@H](Cc1ccc(-c2cn(C)c(=O)n(C)c2=O)cc1)C(=O)O: 234 to 236 °C
2) CCCc1cccc(Cl)c1C(=O)N[C@@H](Cc1ccc(-c2c(C)n(C)c(=O)n(C)c2=O)cc1)C(=O)O: 225 to 227 °C
3) Cc1c(-c2ccc(C[C@H](NC(=O)c3c(Cl)cccc3C(C)C)C(=O)O)cc2)c(=O)n(C)c(=O)n1C: 205 to 209 °C
4) Cc1cc(C[C@H](NC(=O)c2c(C)cccc2Cl)C(=O)O)ccc1-c1cn(C)c(=O)n(C)c1=O: 109 to 111 °C
5) CC(=O)OC(C)OC(=O)[C@H](Cc1ccc(-c2c(C)n(C)c(=O)n(C)c2=O)cc1)NC(=O)c1c(Cl)cccc1Cl (some centres unmarked): 168 to 170 °C
6) Cc1cccc(Br)c1C(=O)N[C@@H](Cc1ccc(-c2c(C)n(C)c(=O)n(C)c2=O)cc1)C(=O)O: 240 to 242 °C
7) Cn1c(C(F)(F)F)c(-c2ccc(C[C@H](NC(=O)c3c(Cl)cccc3Cl)C(=O)O)cc2)c(=O)n(C)c1=O: 125 to 128 °C
8) Cc1cccc(Cl)c1C(=O)N[C@@H](Cc1ccc(-c2c(C(F)(F)F)n(C)c(=O)n(C)c2=O)cc1)C(=O)O: 243 to 247 °C
9) CC(=O)OC(C)OC(=O)[C@H](Cc1ccc(-c2c(C)n(C)c(=O)n(C)c2=O)cc1)NC(=O)c1c(C)cccc1Cl (some centres unmarked): 84 to 88 °C
10) Cc1c(-c2ccc(C[C@H](NC(=O)c3c(Cl)cccc3Cl)C(=O)OCCN3CCOCC3)cc2)c(=O)n(C)c(=O)n1C: 90 to 94 °C
11) CCc1cccc(Cl)c1C(=O)N[C@@H](Cc1ccc(-c2c(C)n(C)c(=O)n(C)c2=O)cc1)C(=O)O: 187 to 190 °C
12) Cn1c(C(F)(F)F)c(-c2ccc(C[C@H](NC(=O)c3c(F)cccc3C(F)(F)F)C(=O)O)cc2)c(=O)n(C)c1=O: 122 to 125 °C
13) CCc1cccc(C)c1C(=O)N[C@@H](Cc1ccc(-c2c(C)n(C)c(=O)n(C)c2=O)cc1)C(=O)O: 127 to 133 °C
14) Cc1c(-c2ccc(C[C@H](NC(=O)c3c(F)cccc3C(F)(F)F)C(=O)O)cc2)c(=O)n(C)c(=O)n1C: 218 to 220 °C

====

STUDY_SYSTEM: VLA-4 (α4β1 integrin) (Homo sapiens, UniProt P05556+P13612)
Construct: Ramos cells bearing cell-surface VLA-4; endogenous in cells; host or cells: Ramos cells
METHOD: VLA-4/VCAM-1 Screening Assay (solid-phase dual antibody ELISA)
TEST_CONDITIONS: Ramos cell-derived VLA-4 binding to immobilized recombinant human VCAM-1
The following compounds are listed with their measured IC50 values.
READOUT: IC50

1. Cc1cccc(Cl)c1C(=O)N[C@@H](Cc1ccc(-c2cn(C)c(=O)n(C)c2=O)cc1)C(=O)O [Example 2]: < 1 nM
2. COc1ccc(Br)c(C(=O)N[C@@H](Cc2ccc(-c3cn(C)c(=O)n(C)c3=O)cc2)C(=O)O)c1 [Example 5]: < 1 nM
3. COCCC1(C(=O)N[C@@H](Cc2ccc(-c3cn(C)c(=O)n(C)c3=O)cc2)C(=O)O)CCCC1 [Example 3]: < 10 nM
4. Cc1cccc(Br)c1C(=O)N[C@@H](Cc1ccc(-c2cn(C)c(=O)n(C)c2=O)cc1)C(=O)O [Example 4]: < 1 nM

====

STUDY_SYSTEM: alpha4-beta7 (Homo sapiens, UniProt P13612+P26010)
Construct: Sufficient RPMI 8866 cells were removed from stock for assay; endogenous in cells
METHOD: Alpha4-Beta7 Assay (MadCAM/RPMI 8866 cell adhesion)
TEST_CONDITIONS: calcein labeled RPMI 8866 cells adhering to immobilized MadCAM
The following compounds are listed with their measured IC50 values.
READOUT: IC50

1. Cc1c(-c2ccc(C[C@H](NC(=O)c3c(Cl)cccc3Cl)C(=O)O)cc2)c(=O)n(C)c(=O)n1C [Example 6]: < 0.1 µM
2. Cn1c(C(F)(F)F)c(-c2ccc(C[C@H](NC(=O)c3c(Cl)cccc3Cl)C(=O)O)cc2)c(=O)n(C)c1=O [Example 21]: < 10 µM
3. CCOC(=O)[C@H](Cc1ccc(-c2c(C)n(C)c(=O)n(C)c2=O)cc1)NC(=O)c1c(Cl)cccc1Cl [Example 27]: < 10 µM
4. CCn1c(C)c(-c2ccc(C[C@H](NC(=O)c3c(C)cccc3Cl)C(=O)O)cc2)c(=O)n(CC)c1=O [Example 19]: < 10 µM
5. Cc1cc(C[C@H](NC(=O)c2c(C)cccc2Cl)C(=O)O)ccc1-c1cn(C)c(=O)n(C)c1=O [Example 24]: < 10 µM
6. Cc1c(-c2ccc(C[C@H](NC(=O)c3c(F)cccc3C(F)(F)F)C(=O)O)cc2)c(=O)n(C)c(=O)n1C [Example 13]: < 10 µM
7. CCc1cccc(C)c1C(=O)N[C@@H](Cc1ccc(-c2c(C)n(C)c(=O)n(C)c2=O)cc1)C(=O)O [Example 10]: < 10 µM
8. Cc1cccc(C(C)C)c1C(=O)N[C@@H](Cc1ccc(-c2c(C)n(C)c(=O)n(C)c2=O)cc1)C(=O)O [Example 11]: < 5 µM
9. CCn1c(C)c(-c2ccc(C[C@H](NC(=O)C3(CCOC)CCCC3)C(=O)O)cc2)c(=O)n(CC)c1=O [Example 20]: < 10 µM
10. Cc1cccc(Cl)c1C(=O)N[C@@H](Cc1ccc(-c2c(C)n(C)c(=O)n(C)c2=O)cc1)C(=O)O [Example 9]: < 0.1 µM
11. Cc1cccc(Br)c1C(=O)N[C@@H](Cc1ccc(-c2c(C)n(C)c(=O)n(C)c2=O)cc1)C(=O)O [Example 8]: < 0.1 µM
12. CCn1c(C)c(-c2ccc(C[C@H](NC(=O)c3c(Cl)cccc3Cl)C(=O)O)cc2)c(=O)n(CC)c1=O [Example 18]: < 0.1 µM
13. Cc1cccc(Cl)c1C(=O)N[C@@H](Cc1ccc(-c2c(C(F)(F)F)n(C)c(=O)n(C)c2=O)cc1)C(=O)O [Example 22]: < 10 µM
14. Cc1c(-c2ccc(C[C@H](NC(=O)c3c(F)cccc3F)C(=O)O)cc2)c(=O)n(C)c(=O)n1C [Example 12]: < 0.1 µM

Entry source: patent US6380387B1
